System: NSCLC H838 cell
Assay: Cytotoxicity assay (direct cell counting), H838
Type: cell-based
Settings: Homo sapiens, NCI-H838, 72 h, H838 cells; 3 days incubation, viable cells counted
experimental_endpoint: pIC50
Give bare numbers, as −log10 of the molar value.

C[n+]1ccc(/C=C/c2c[nH]c3ccc(F)cc23)cc1: 5.44
Cc1cc(Br)cc2c(/C=C/c3cc[n+](C)cc3)c[nH]c12: 6.44
C[n+]1ccc(/C=C/c2c(-c3ccccc3)[nH]c3ccccc23)cc1: 5.43
C[n+]1ccc(/C=C/c2c[nH]c3ccc([N+](=O)[O-])cc23)cc1: 5.33

Exercise: Give the reported value of pIC50 for this record: `C[n+]1ccc(/C=C/c2c[nH]c3ccc(C#N)cc23)cc1`
Solution: 4.70

###

Tested on: bladder cancer T24 cell
Assay: Cytotoxicity assay (direct cell counting), T24
Assay type: cell-based
Conditions: T24 cells; 3 days incubation, viable cells counted
experimental_endpoint: IC50 (µM)
Answers are plain numbers, in µM.

Exercise: Please give measured IC50 of the following entry: C[n+]1ccc(/C=C/c2c[nH]c3ccccc23)cc1 [F16, reference compound]
Solution: 18.8

###

Tested on: HCC4006 NSCLC cell line
Assay: Cytotoxicity assay, HCC4006
Type: cell-based
Settings: Homo sapiens; HCC4006 cells
experimental_endpoint: pIC50
Give bare numbers, as −log10 of the molar value.

Exercise: For the compound Cc1cc(Br)cc2c(/C=C/c3cc[n+](C)cc3)c[nH]c12 [5BMF] , give its measured pIC50 value.
Solution: 6.97

###

Test system: NSCLC H838 cell
Assay: Cytotoxicity assay (direct cell counting), H838
Type: cell-based
Conditions: Homo sapiens, NCI-H838, 72 h, H838 cells; 3 days incubation, viable cells counted
Kindly state pIC50 for each of the entries shown.
Answers are plain numbers, as −log10 of the molar value.

# example entries with known answers
Cn1cc(/C=C/c2cc[n+](C)cc2)c2cc(F)ccc21: 4.72
C[n+]1ccc(/C=C/c2c(Cl)[nH]c3ccccc23)cc1: 4.59
C[n+]1ccc(/C=C/c2c[nH]c3c2ccc2ccccc23)cc1: 5.82
C[n+]1ccc(/C=C/c2c[nH]c3c(F)cc(I)cc23)cc1: 5.89
Cc1ccc2[nH]c(C)c(/C=C/c3cc[n+](C)cc3)c2c1: 4.76

Exercise: # return pIC50 of `C[n+]1ccc(/C=C/c2c[nH]c3ccc(Br)cc23)cc1` (system: NSCLC H838 cell)
Solution: 5.92

###

What IC50 at 3 days was measured for each of the following?
Assay: Cytotoxicity assay (direct cell counting), NIH-3T3
Assay type: cell-based
Conditions: mouse; NIH-3T3 normal cells; 3 days incubation, viable cells counted
Give bare numbers, in µM.

Example compounds with recorded IC50 at 3 days:
C[n+]1ccc(/C=C/c2c[nH]c3c(F)cc(I)cc23)cc1: 14.2
C[n+]1ccc(/C=C/c2c(-c3ccccc3)[nH]c3ccccc23)cc1: 0.326
C[n+]1ccc(/C=C/c2c[nH]c3c2ccc2ccccc23)cc1: 0.28
Cc1ccc2[nH]c(C)c(/C=C/c3cc[n+](C)cc3)c2c1: 161
C[n+]1ccc(/C=C/c2c[nH]c3ccc(Br)cc23)cc1: 11.6

Batch lookup, IC50 at 3 days per entry.
1. C[n+]1ccc(/C=C/c2c[nH]c3ccc(F)cc23)cc1
2. Cc1cc(Br)cc2c(/C=C/c3cc[n+](C)cc3)c[nH]c12
3. C[n+]1ccc(/C=C/c2c(Cl)[nH]c3ccccc23)cc1
4. Cn1cc(/C=C/c2cc[n+](C)cc2)c2cc(F)ccc21

Solution:
[75.1, 11, 13.8, 104]

Exercise: Return value of IC50 at 3 days for input `C[n+]1ccc(/C=C/c2c[nH]c3ccc([N+](=O)[O-])cc23)cc1` , no commentary.
Solution: 86

###

System: bladder cancer T24 cell
Experiment: Cytotoxicity assay (direct cell counting), T24
Type: cell-based
Conditions: Homo sapiens, T-24, 72 h, T24 cells; 3 days incubation, viable cells counted
Threshold check on IC50: strictly below 4 µM is true; on or above 4 µM is false.

Please review the entries below; each comes with its answer.
C[n+]1ccc(/C=C/c2c[nH]c3ccc([N+](=O)[O-])cc23)cc1 [NO2F16]: false
Cc1cc(Br)cc2c(/C=C/c3cc[n+](C)cc3)c[nH]c12 [5BMF]: true

Exercise: Dear colleague, could you confirm whether IC50 of C[n+]1ccc(/C=C/c2c(Cl)[nH]c3ccccc23)cc1 [2-ClF16] falls below 4 µM? Thanks.
Solution: false

Exercise: Is it true that IC50 reported for Cc1ccc2[nH]c(C)c(/C=C/c3cc[n+](C)cc3)c2c1 [2-Me-5-MeF16] is less than 4 µM?
Solution: false

Exercise: A record lists Cn1cc(/C=C/c2cc[n+](C)cc2)c2cc(F)ccc21 [1-MeFF16] . Is its IC50 below 4 µM?
Solution: false

Exercise: Determine if C[n+]1ccc(/C=C/c2c[nH]c3ccc(F)cc23)cc1 [FF16] shows IC50 strictly lower than 4 µM.
Solution: false

Exercise: For C[n+]1ccc(/C=C/c2c[nH]c3ccc(Br)cc23)cc1 [5-BrF16] , is the recorded IC50 below the cut-off of 4 µM?
Solution: true

Exercise: Is IC50 of C[n+]1ccc(/C=C/c2c[nH]c3c2ccc2ccccc23)cc1 [PhF16] strictly below 4 µM?
Solution: true

Exercise: Find out if reported IC50 for C[n+]1ccc(/C=C/c2c[nH]c3c(F)cc(I)cc23)cc1 [5-I-7-FF16] is less than 4 µM
Solution: true

Exercise: Would you kindly verify if IC50 of C[n+]1ccc(/C=C/c2c[nH]c3ccc(C#N)cc23)cc1 [5-CNF16] is strictly less than 4 µM?
Solution: false

###

Test system: H1944 NSCLC cell line
Test: Cytotoxicity assay, H1944
Format: cell-based
Settings: Homo sapiens, NCI-H1944; H1944 cells
experimental_endpoint: IC50 (nM)
Give bare numbers, in nM.

Exercise: Give a short answer stating reported IC50 for Cc1cc(Br)cc2c(/C=C/c3cc[n+](C)cc3)c[nH]c12 [5BMF] .
Solution: 261

###

Test system: H1693 NSCLC cell line
Test: Cytotoxicity assay, H1693
Type: cell-based
Details: Homo sapiens, NCI-H1693; H1693 cells
experimental_endpoint: pIC50
One number for each entry, as −log10 of the molar value.

Exercise: Give pIC50 for Cc1cc(Br)cc2c(/C=C/c3cc[n+](C)cc3)c[nH]c12 [5BMF]
Solution: 5.93

###

Test system: NSCLC H838 cell
Assay: Cytotoxicity assay (direct cell counting), H838
Format: cell-based
Settings: H838 cells; 3 days incubation, viable cells counted
experimental_endpoint: IC50 (µM)
One number for each entry, in µM.

Exercise: Find the measured IC50 of C[n+]1ccc(/C=C/c2c[nH]c3ccccc23)cc1 [F16, reference compound] with NSCLC H838 cell as test system.
Solution: 46.6

###

Answer each item with its documented Quantum Yield.
Assay: Relative fluorescence quantum yield
Format: physicochemical
Conditions: EtOH, relative to rhodamine 6G, excited at 425 nm
Answers are plain numbers, in %.

C[n+]1ccc(/C=C/c2c[nH]c3ccc([N+](=O)[O-])cc23)cc1: 1.24
C[n+]1ccc(/C=C/c2c[nH]c3ccc(Br)cc23)cc1: 49.1
C[n+]1ccc(/C=C/c2c[nH]c3c(F)cc(I)cc23)cc1: 4.5
C[n+]1ccc(/C=C/c2c(-c3ccccc3)[nH]c3ccccc23)cc1: 5.8
Cn1cc(/C=C/c2cc[n+](C)cc2)c2cc(F)ccc21: 13.6
C[n+]1ccc(/C=C/c2c(Cl)[nH]c3ccccc23)cc1: 8.6
Cc1ccc2[nH]c(C)c(/C=C/c3cc[n+](C)cc3)c2c1: 18.1
C[n+]1ccc(/C=C/c2c[nH]c3ccc(C#N)cc23)cc1: 9.7
Cc1cc(Br)cc2c(/C=C/c3cc[n+](C)cc3)c[nH]c12: 19.7
C[n+]1ccc(/C=C/c2c[nH]c3ccc(F)cc23)cc1: 18.5

Consider the additional molecule presented here.
Exercise: Give a short answer stating reported Quantum Yield for `C[n+]1ccc(/C=C/c2c[nH]c3c2ccc2ccccc23)cc1` .
Solution: 12.2
